Listed compounds paired with reported IC50
target: Pim-1 (Homo sapiens (Human)); assay: Pim-Mn enzyme assay (HTRF, 384-well), Pim-1; format: biochemical; settings: Pim-1 enzyme 5 pM, ATP 1.5 μM, BAD (S112) 0.5 μM, HTRF, 22-point curve; read-out: Pim-1-Mn IC50 IP

| COMPOUND | IC50 |
| --- | --- |
| Cc1nc2cccc(-c3cc4c([nH]3)[C@@H](C)NC4=O)c2nc1N[C@H]1CCC[C@@H](NS(C)(=O)=O)C1 [Example 489] | 4 nM |
| Cc1nc2cccc(-c3cc4c([nH]3)CCNC4=O)c2nc1NC1(C)CC1 [Example 202] | 0.3 nM |
| Cc1nc2cccc(-c3cc4c([nH]3)[C@@H](C)NC4=O)c2nc1O[C@H](C)C(F)(F)F [Example 453] | 37.5 nM |

Task: IC50 of Cc1nc2cccc(-c3cc4c([nH]3)CCNC4=O)c2nc1NC(=N)N [Example 447] on Pim-1 (Homo sapiens (Human))?
Result: 133 nM

Task: Cc1nc2ccc(F)c(-c3cc4c([nH]3)CCNC4=O)c2nc1NC1(C)CCC1 [Example 376] ?
Result: 0.191 nM

Task: What do you have for Cc1nc2cccc(-c3cc4c([nH]3)CCNC4=O)c2nc1NC1(CO)CCC1 [Example 146] ?
Result: 6.5 nM

Task: Proceed to Cc1nc2cccc(-c3cc4c([nH]3)CCNC4=O)c2nc1N[C@H]1C[C@H](O)C1 [Example 442]
Result: 3.4 nM

Task: Field entry: Cc1nc2cccc(-c3cc4c(=O)[nH]cnc4[nH]3)c2nc1N [Example 262]
Result: 18.9 nM

---

test system: KMS-12-BM myeloma cell line; test: Pim KMS-12 cell assay (phospho-BAD S112 / total BAD, MSD); conditions: Homo sapiens, KMS-12-BM, read-out: KMS-12-BM IC50 IP
Recorded IC50 by entry
Just the number please, in µM, no unit attached.

Task: What is its IC50 for KMS-12-BM myeloma cell line? Entry: "CN(c1ccccc1)c1ccc2cccc(-c3cc4c([nH]3)CCNC4=O)c2n1"
Result: 2.34

Task: Note, next up: "Cc1nc2cccc(-c3cc4c([nH]3)CCNC4=O)c2nc1NC1CCCCC1"
Result: 0.143

Task: Follow-up item: "CCNc1nc2c(-c3cc4c([nH]3)CCNC4=O)cccc2nc1C"
Result: 0.223

Task: Repeat with "Cc1nc2cccc(-c3cc4c([nH]3)C3(CC3)CNC4=O)c2nc1NC1CC1"
Result: 0.494

Task: Next molecule up: "CN(c1ccccc1)c1cnc2cccc(-c3cc4c([nH]3)CCNC4=O)c2n1"
Result: 1.01

---

target: Pim-2 (Homo sapiens (Human)); assay: Pim-Mn enzyme assay (HTRF, 384-well), Pim-2; type: biochemical; conditions: Pim-2 enzyme 0.5 pM, ATP 1.5 μM, BAD (S112) 0.5 μM, HTRF, 22-point curve; read-out: Pim-2-Mn IC50 IP
We begin with a simple list: items and their reported IC50.
A number alone suffices; assume nM.

Some compounds with recorded IC50:
| COMPOUND | UNIT_STRING | QUANTITATIVE_RESULT |
| --- | --- | --- |
| Cn1c(NC(C)(C)C)nc2c(-c3cc4c([nH]3)CCNC4=O)cccc2c1=O | nM | 0.169 |
| Cc1nc2cccc(-c3cc4c([nH]3)CCNC4=O)c2nc1NC1(C)CCCC1 | nM | 0.6 |
| Cc1nc2ccc(F)c(-c3cc4c([nH]3)[C@@H]([C@H](C)O)NC4=O)c2nc1NC1CC1 | nM | 2.3 |

Task: Need IC50, item "CC1(C)COCCN1c1cnc2cccc(-c3cc4c([nH]3)CCNC4=O)c2n1"
Result: 3.2

Task: Another compound to look at: "Cc1nc2cccc(-c3cc4c([nH]3)CCNC4=O)c2nc1-c1ccccn1"
Result: 167

Task: Next compound up: "CC1(C)CNCCN1c1cnc2cccc(-c3cc4c([nH]3)CCNC4=O)c2n1"
Result: 5.3

Task: Again, but for "CN(c1cnc2cccc(-c3cc4c([nH]3)CCNC4=O)c2n1)C(C)(C)C"
Result: 0.7

Task: What about Cc1nc2cccc(-c3cc4c([nH]3)CCNC4=O)c2nc1NC1CC(O)C1 (centres unmarked) ?
Result: 1.9

Task: # repeat for "Cc1nc2ccc(F)c(-c3cc4c([nH]3)[C@H](C)NC4=O)c2nc1NC1CC1"
Result: 0.902

---

molecular target: Pim-1 (Homo sapiens (Human), UniProt P11309); experiment: Pim-Mn enzyme assay (HTRF, 384-well), Pim-1; type: biochemical; conditions: Pim-1 enzyme 5 pM, ATP 1.5 μM, BAD (S112) 0.5 μM, HTRF, 22-point curve; read-out: Pim-1-Mn IC50 IP
Sequence (P11309 whole entry): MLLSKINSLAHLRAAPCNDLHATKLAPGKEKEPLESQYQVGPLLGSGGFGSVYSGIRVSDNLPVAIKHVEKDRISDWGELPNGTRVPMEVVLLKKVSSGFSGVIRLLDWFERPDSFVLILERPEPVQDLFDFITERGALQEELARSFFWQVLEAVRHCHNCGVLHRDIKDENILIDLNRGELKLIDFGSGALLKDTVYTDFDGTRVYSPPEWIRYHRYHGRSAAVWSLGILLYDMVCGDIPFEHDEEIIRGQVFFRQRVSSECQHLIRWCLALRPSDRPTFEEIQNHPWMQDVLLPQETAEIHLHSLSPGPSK
Flag rule - IC50 less than 3 nM flags MET; the remaining entries get NOT MET.

| MOLECULE | CLASS |
| --- | --- |
| Cc1nc2cccc(-c3cc4n(c3)C(CCO)CNC4=O)c2nc1NC(C)(C)C (racemic) | NOT MET |
| Cc1nc2cccc(-c3cc4c([nH]3)CCNC4=O)c2nc1NCC(F)(F)F | MET |
| C#Cc1nc2cccc(-c3cc4c([nH]3)CCNC4=O)c2nc1NC(C)(C)C | MET |
| COc1nc2cccc(-c3cc4c([nH]3)CCNC4=O)c2nc1NC(C)(C)C | MET |
| Cc1nc2cccc(-c3cc4c([nH]3)CCNC4=O)c2nc1-c1ccoc1 | NOT MET |

Task: Strictly below 3 nM: is that where IC50 of "CC(=O)N[C@@H]1CCC[C@H](Nc2nc3c(-c4cc5c([nH]4)[C@@H](C)NC5=O)cccc3nc2C)C1" sits?
Result: MET

Task: Okay, and "Cc1nc2cccc(-c3cc4c([nH]3)CCNC4=S)c2nc1NC(C)(C)C" ?
Result: MET

Task: Likewise for "CCNc1nc2c(-c3cc4c([nH]3)CCNC4=O)cccc2nc1C" ?
Result: NOT MET

Task: Would you mind doing "Cc1nc2cccc(-c3cc4c([nH]3)[C@@H](CO)NC4=O)c2nc1NC1CC1" as well?
Result: MET

Task: Also, "Cc1nc2cccc(-c3cc4c([nH]3)CCNC4=O)c2nc1Cl" please.
Result: NOT MET

Task: Would you mind doing "CC1(C)CNCCN1c1cnc2cccc(-c3cc4c([nH]3)CCNC4=O)c2n1" as well?
Result: MET

Task: Do the same for "Cc1nc2cccc(-c3cc4c([nH]3)CCNC4=O)c2nc1N[C@H]1CCN(C(=O)OC(C)(C)C)C1" please
Result: NOT MET

Task: Record: "Cc1nc2cccc(-c3cc4c([nH]3)[C@@H](C)NC4=O)c2nc1N[C@H]1CCC[C@@H](NC(=O)[C@@H](CO)NC(=O)OC(C)(C)C)C1"
Result: NOT MET

Task: Request: Cc1nc2cccc(-c3cc4c([nH]3)CCNC4=O)c2nc1NC1CCCC(O)C1 (racemic)
Result: MET

Task: Thanks! And "CC(=O)N1CCC[C@@H](Nc2nc3c(-c4cc5c([nH]4)CCNC5=O)cccc3nc2C)C1" ?
Result: NOT MET

Task: Please do the same for "Cc1nc2cccc(-c3cc4c([nH]3)[C@H](CO)NC4=O)c2nc1NC1CC1" as well.
Result: NOT MET

---

molecular target: Pim-2 (Homo sapiens (Human), UniProt Q9P1W9); assay: Pim-Mn enzyme assay (HTRF, 384-well), Pim-2; assay type: biochemical; conditions: Pim-2 enzyme 0.5 pM, ATP 1.5 μM, BAD (S112) 0.5 μM, HTRF, 22-point curve; read-out: Pim-2-Mn IC50 IP
Sequence (Q9P1W9 whole entry): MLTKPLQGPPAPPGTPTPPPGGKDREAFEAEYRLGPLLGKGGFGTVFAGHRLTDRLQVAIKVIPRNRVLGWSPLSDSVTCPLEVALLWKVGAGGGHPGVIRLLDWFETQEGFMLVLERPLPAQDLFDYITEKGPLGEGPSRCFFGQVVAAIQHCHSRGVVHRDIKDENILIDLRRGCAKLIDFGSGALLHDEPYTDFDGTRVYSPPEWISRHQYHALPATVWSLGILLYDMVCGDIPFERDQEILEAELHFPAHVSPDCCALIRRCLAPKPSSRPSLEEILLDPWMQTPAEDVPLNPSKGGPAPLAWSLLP
The entries below come with measured pIC50 values attached.
Field pIC50 (float): negative decimal logarithm of the concentration in molar.

| COMPOUND | pIC50 |
| --- | --- |
| Cc1nc2ccc(F)c(-c3cc4c([nH]3)CCNC4=O)c2nc1NC1(C)CCC1 | 9.87 |
| Cc1nc2cccc(-c3cc4c([nH]3)CCNC4=O)c2nc1NC1CCCCC1O (racemic) | 8.35 |
| Cc1nc2ccc(F)c(-c3cc4c([nH]3)C3(CC3)NC4=O)c2nc1NC(C)(C)C | 9.28 |
| COCCn1c(NC(C)(C)C)nc2c(-c3cc4c([nH]3)[C@@H](C)NC4=O)cccc2c1=O | 9.71 |
| Cc1nc2cccc(-c3[nH]c4c(c3C)C(=O)NCC4)c2nc1NC(C)(C)C | 8.47 |

Task: # lookup: pIC50 of "CC1(C)CCCCN1c1cnc2cccc(-c3cc4c([nH]3)CCNC4=O)c2n1"
Result: 8.64

Task: Try the compound C[C@H]1NC(=O)c2cc(-c3cccc4c(=O)n(C)c(N[C@H]5CCC[C@@H](N)C5)nc34)[nH]c21 (racemic)
Result: 10.00

Task: Would you kindly repeat that for "Cc1nc2cccc(-c3cc4c([nH]3)CCNC4=O)c2nc1NC1CN(C(=O)OC(C)(C)C)C1" ?
Result: 7.48
